# maps each entry to its pest or weed control at 35 g/ha
Test system: Key Broadleaf Weed and Crop Species
Test: Post-emergent Test II herbicidal activity (Table 15)
Assay type: in vivo
Settings: Euphorbia heterophylla, post-emergence, 336 h, wild poinsettia (Euphorbia heterophylla), 35 g ai/ha, 14 d, read-out: Visual Growth Reduction (%) 14 Days After Application, EPHHL

- COMPOUND SMILES: "COC(=O)c1nc(-c2ccc3ccsc3c2)cc(N)c1Cl"
  pest or weed control at 35 g/ha: "75 to 84%"
- COMPOUND SMILES: "Nc1c(F)c(-c2ccc3scnc3c2)nc(C(=O)O)c1Cl"
  pest or weed control at 35 g/ha: "95 to 100%"
- COMPOUND SMILES: "COC(=O)c1nc(-c2ccc3cc[nH]c3c2)c(F)c(N)c1Cl"
  pest or weed control at 35 g/ha: "95 to 100%"
- COMPOUND SMILES: "Nc1c(Cl)c(C(=O)O)nc(-c2ccc3sccc3c2)c1Cl"
  pest or weed control at 35 g/ha: "0 to 29%"
- COMPOUND SMILES: "COC(=O)c1nc(-c2ccc3cc[nH]c3c2)c(C)c(N)c1Cl"
  pest or weed control at 35 g/ha: "0 to 29%"
- COMPOUND SMILES: "COC(=O)c1nc(-c2ccc(Cl)c3ccoc23)c(F)c(N)c1Cl"
  pest or weed control at 35 g/ha: "60 to 74%"
- COMPOUND SMILES: "COC(=O)c1nc(-c2ccc(Cl)c3ccoc23)nc(N)c1OC"
  pest or weed control at 35 g/ha: "45 to 59%"
- COMPOUND SMILES: "Nc1c(F)c(-c2ccc3cc[nH]c3c2F)nc(C(=O)O)c1Cl"
  pest or weed control at 35 g/ha: "95 to 100%"
- COMPOUND SMILES: "COC(=O)c1nc(-c2ccc3ccsc3c2)c(F)c(N)c1Cl"
  pest or weed control at 35 g/ha: "60 to 74%"
- COMPOUND SMILES: "COC(=O)c1nc(-c2ccc3sccc3c2)c(Cl)c(N)c1Cl"
  pest or weed control at 35 g/ha: "0 to 29%"
- COMPOUND SMILES: "COC(=O)c1nc(-c2cc3occc3cc2F)nc(N)c1OC"
  pest or weed control at 35 g/ha: "85 to 94%"
- COMPOUND SMILES: "Nc1nc(-c2ccc(Cl)c3occc23)nc(C(=O)O)c1Cl"
  pest or weed control at 35 g/ha: "0 to 29%"
- COMPOUND SMILES: "Nc1cc(-c2ccc3cc[nH]c3c2F)nc(C(=O)O)c1Cl"
  pest or weed control at 35 g/ha: "95 to 100%"
- COMPOUND SMILES: "COC(=O)c1nc(-c2ccc3occc3c2)nc(N)c1OC"
  pest or weed control at 35 g/ha: "30 to 44%"
- COMPOUND SMILES: "COC(=O)c1nc(-c2ccc(Cl)c3ccoc23)cc(N)c1Cl"
  pest or weed control at 35 g/ha: "0 to 29%"
- COMPOUND SMILES: "COC(=O)c1nc(-c2ccc3cc[nH]c3c2F)cc(N)c1Cl"
  pest or weed control at 35 g/ha: "95 to 100%"
- COMPOUND SMILES: "COC(=O)c1nc(-c2cc3occc3cc2F)c(F)c(N)c1Cl"
  pest or weed control at 35 g/ha: "95 to 100%"
- COMPOUND SMILES: "COC(=O)c1nc(-c2ccc(Cl)c3cc[nH]c23)cc(N)c1Cl"
  pest or weed control at 35 g/ha: "0 to 29%"
- COMPOUND SMILES: "COC(=O)c1nc(-c2cccc3[nH]ccc23)c(F)c(N)c1Cl"
  pest or weed control at 35 g/ha: "0 to 29%"
- COMPOUND SMILES: "COC(=O)c1nc(-c2ccc3c(cnn3C)c2)c(F)c(N)c1Cl"
  pest or weed control at 35 g/ha: "45 to 59%"
